These entries and their values trace back to the RNAGym collection of RNA variant scans (doi:10.7554/elife.80360).

B1: Twister Ribozyme (parent)
chain: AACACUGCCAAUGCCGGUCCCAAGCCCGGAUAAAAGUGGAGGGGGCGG

Variants of: B1
Test: self-cleavage, relative activity (ratio to wild type); higher = more cleavage; co-transcriptional
So I've got a bunch of variants here, and I need their self-cleavage values.
One number for each entry.

AACACUGCCAAUGCCGGUCCCAAGCCCGGAUAAAGGGGGAGGGGGCGG [A35G U37G]: 0.585
AACACUCCCAAUGCCGGUCCGAAGCCCGGAUAAAAGUGGAGGGGGCGG [G7C C21G]: 0.0593
AACACUGCCAAUGCCGGCCCCAAGCCCGGAUUAAAGUGGAGGGGGCGG [U18C A32U]: 0.464
AACUCUGCCAAUGCCGGUCCCAAGCCCGGAUAAGAGUGGAGGGGGCGG [A4U A34G]: 0.0772

Please look at the items below and tell me self-cleavage for each one, in order.
1. AACACUGCCAAUGCCGGUCCCAAGCCCGGAUAACAGUGGAUGGGGCGG [A34C G41U]
2. AACACUGCCAAUGCUGGUCCCAAGCCCGGAUAAAAGUGAAGGGGGCGG [C15U G39A]

1. 0.112
2. 0.314

Dear reader, for each entry below, please note its self-cleavage.
1. AACACUGCCAAUGCCGGUCCUAAGCCCGGAUAAAAUUGGAGGGGGCGG [C21U G36U]
2. AACACUGCCUAUGCCGGCCCCAAGCCCGGAUAAAAGUGGAGGGGGCGG [A10U U18C]
3. AACACUGCCAAAGCCGAUCCCAAGCCCGGAUAAAAGUGGAGGGGGCGG [U12A G17A]

1: 0.0467; 2: 0.506; 3: 0.85

For every item below, please supply its self-cleavage.
1. AACACAGCCAAUGCCGGUCCCAGGCCCGGAUAAAAGUGGAGGGGGCGG [U6A A23G]
2. AACACUGCUAAUGCCGGUCCCAAGCCCGGAUAAAAGUGGAGGCGGCGG [C9U G43C]
3. AACCCUGCCGAUGCCGGUCCCAAGCCCGGAUAAAAGUGGAGGGGGCGG [A4C A10G]
4. AACACUGCCAAUGCCGGUCCCAAGCCCGGAAGAAAGUGGAGGGGGCGG [U31A A32G]
5. AACACUGCCAAUGCCGGUCCCAGGCCCGGAUAAUAGUGGAGGGGGCGG [A23G A34U]
6. AACACUGCCAAUGCCGGUCCAAAGCCCGGAUAAAAGUGGAGCGGGCGG [C21A G42C]
7. AACACUGCCAAUGCCGGUGCCAAGCCCGGAUAGAAGUGGAGGGGGCGG [C19G A33G]
8. AACACUGCCAAUGCCGGUCUCAAGCCCGGAUAAAAGUGGAGGGGGCAG [C20U G47A]

1. 0.14
2. 0.151
3. 0.334
4. 0.985
5. 0.15
6. 0.15
7. 0.175
8. 0.859

Count: 5. Required value per item: self-cleavage.
1. AACACUGCCAAUGCAGGUCCCAAGCCCGGAUAAAAGUGGAGGGGGAGG [C15A C46A]
2. AACACUGCCAAUGCCGGUCCCAAGCCCGGAUAAAAGUGGGGGGGGCAG [A40G G47A]
3. AACACUGCCAAUGCCGGUCCCAAGCCUGGAUUAAAGUGGAGGGGGCGG [C27U A32U]
4. AACACUGUCAAUGCCGGUCCCAAGCCCGGAUAAAAGUGGAGGGGGCGC [C8U G48C]
5. AACACUGCCAAUGCCGGGCCCAAUCCCGGAUAAAAGUGGAGGGGGCGG [U18G G24U]

1: 0.565; 2: 0.102; 3: 0.842; 4: 0.652; 5: 0.0765
